# study-system: T1, murine OX40 (murine, UniProt P47741 20-211, limits assumed)
# T1 construct: also called mouse OX40
# T1 sequence (looked up): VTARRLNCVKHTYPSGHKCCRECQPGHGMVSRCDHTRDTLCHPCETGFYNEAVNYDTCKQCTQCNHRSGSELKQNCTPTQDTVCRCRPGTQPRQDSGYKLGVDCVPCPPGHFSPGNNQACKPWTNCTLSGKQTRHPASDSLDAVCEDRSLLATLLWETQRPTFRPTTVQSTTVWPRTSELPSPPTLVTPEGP
# method: ELISA
test-readout: binding result

>>> value("1526/1527 (antibody, V domains shown, OX40 antibody, tested as IgG) VH: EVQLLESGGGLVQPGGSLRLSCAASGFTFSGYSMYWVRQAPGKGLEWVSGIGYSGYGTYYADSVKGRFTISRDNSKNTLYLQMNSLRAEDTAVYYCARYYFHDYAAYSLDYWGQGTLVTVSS VL: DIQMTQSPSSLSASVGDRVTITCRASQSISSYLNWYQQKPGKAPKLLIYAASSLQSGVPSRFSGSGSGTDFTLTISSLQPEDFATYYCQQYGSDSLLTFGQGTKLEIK")
"no binding"
>>> value("1170/1171 (antibody, V domains shown, OX40 antibody, tested as IgG) VH: EVQLLESGGGLVQPGGSLRLSCAASGFTFGGYYMSWVRQAPGKGLEWVSYIPGSGGSTYYADSVKGRFTISRDNSKNTLYLQMNSLRAEDTAVYYCARYDYYWMDYWGQGTLVTVSS VL: DIQMTQSPSSLSASVGDRVTITCRASQSISSYLNWYQQKPGKAPKLLIYAASSLQSGVPSRFSGSGSGTDFTLTISSLQPEDFATYYCQQGHGSYPHTFGQGTKLEIK")
"no binding"
>>> value("1514/1515 (antibody, V domains shown, OX40 antibody, tested as IgG) VH: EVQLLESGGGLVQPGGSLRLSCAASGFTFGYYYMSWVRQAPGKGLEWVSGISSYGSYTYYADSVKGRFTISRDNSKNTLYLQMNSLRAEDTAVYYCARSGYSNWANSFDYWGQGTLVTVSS VL: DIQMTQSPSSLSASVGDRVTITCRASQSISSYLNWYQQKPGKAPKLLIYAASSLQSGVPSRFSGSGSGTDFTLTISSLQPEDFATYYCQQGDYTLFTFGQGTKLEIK")
"no binding"
